Cited source for all entries: BigSolDB 2.1

- STUDY_CONDITIONS: in water, 313.15 K
ASSAY_ENDPOINT: solubility (mole fraction)

mol=O=C(O)[C@@H]1C[C@@H](O)CN1 assay_endpoint="solubility (mole fraction)" endpoint_value=0.0571

---

- STUDY_CONDITIONS: in sec-butanol, 298.15 K
ASSAY_ENDPOINT: solubility (mole fraction)

mol=O=C(O)[C@@H]1C[C@@H](O)CN1 endpoint_value=0.000129

---

- STUDY_CONDITIONS: in n-pentanol, 308.15 K
ASSAY_ENDPOINT: solubility (mole fraction)

mol=O=C(O)[C@@H]1C[C@@H](O)CN1 endpoint_value=0.000215

---

- STUDY_CONDITIONS: in ethyl acetate, 283.15 K
ASSAY_ENDPOINT: solubility (mole fraction)

mol=O=C(O)[C@@H]1C[C@@H](O)CN1 endpoint_value=0.000455

---

- STUDY_CONDITIONS: in sec-butanol, 293.15 K
ASSAY_ENDPOINT: solubility (mole fraction)

mol=O=C(O)[C@@H]1C[C@@H](O)CN1 endpoint_value=9e-05

---

- STUDY_CONDITIONS: in acetonitrile, 288.15 K
ASSAY_ENDPOINT: solubility (mole fraction)

mol=O=C(O)[C@@H]1C[C@@H](O)CN1 endpoint_value=3.3e-05

---

- STUDY_CONDITIONS: in isobutanol, 288.15 K
ASSAY_ENDPOINT: solubility (mole fraction)

mol=O=C(O)[C@@H]1C[C@@H](O)CN1 endpoint_value=8.2e-05

---

- STUDY_CONDITIONS: in ethyl acetate, 293.15 K
ASSAY_ENDPOINT: solubility (mole fraction)

mol=O=C(O)[C@@H]1C[C@@H](O)CN1 endpoint_value=0.000863

---

- STUDY_CONDITIONS: in ethanol, 303.15 K
ASSAY_ENDPOINT: solubility (mole fraction)

mol=O=C(O)[C@@H]1C[C@@H](O)CN1 endpoint_value=0.000226

---

- STUDY_CONDITIONS: in n-pentanol, 313.15 K
ASSAY_ENDPOINT: solubility (mole fraction)

mol=O=C(O)[C@@H]1C[C@@H](O)CN1 endpoint_value=0.000321

---

- STUDY_CONDITIONS: in water, 288.15 K
ASSAY_ENDPOINT: solubility (mole fraction)

mol=O=C(O)[C@@H]1C[C@@H](O)CN1 assay_endpoint="solubility (mole fraction)" endpoint_value=0.0473

---

- STUDY_CONDITIONS: in n-butanol, 318.15 K
ASSAY_ENDPOINT: solubility (mole fraction)

mol=O=C(O)[C@@H]1C[C@@H](O)CN1 endpoint_value=0.000316

---

- STUDY_CONDITIONS: in water, 308.15 K
ASSAY_ENDPOINT: solubility (mole fraction)

mol=O=C(O)[C@@H]1C[C@@H](O)CN1 assay_endpoint="solubility (mole fraction)" endpoint_value=0.0554

---

- STUDY_CONDITIONS: in isopropanol, 323.15 K
ASSAY_ENDPOINT: solubility (mole fraction)

mol=O=C(O)[C@@H]1C[C@@H](O)CN1 assay_endpoint="solubility (mole fraction)" endpoint_value=0.00036

---

- STUDY_CONDITIONS: in dichloromethane, 293.15 K
ASSAY_ENDPOINT: solubility (mole fraction)

mol=O=C(O)[C@@H]1C[C@@H](O)CN1 endpoint_value=0.000313
